Molecular target: unphosphorylated c-KIT kinase (uKIT, Seq. ID no. 2) (Homo sapiens)
Construct: uKit with N-terminal GST fusion used for screening
Sequence (P10721 with tags, fused parts or gaps): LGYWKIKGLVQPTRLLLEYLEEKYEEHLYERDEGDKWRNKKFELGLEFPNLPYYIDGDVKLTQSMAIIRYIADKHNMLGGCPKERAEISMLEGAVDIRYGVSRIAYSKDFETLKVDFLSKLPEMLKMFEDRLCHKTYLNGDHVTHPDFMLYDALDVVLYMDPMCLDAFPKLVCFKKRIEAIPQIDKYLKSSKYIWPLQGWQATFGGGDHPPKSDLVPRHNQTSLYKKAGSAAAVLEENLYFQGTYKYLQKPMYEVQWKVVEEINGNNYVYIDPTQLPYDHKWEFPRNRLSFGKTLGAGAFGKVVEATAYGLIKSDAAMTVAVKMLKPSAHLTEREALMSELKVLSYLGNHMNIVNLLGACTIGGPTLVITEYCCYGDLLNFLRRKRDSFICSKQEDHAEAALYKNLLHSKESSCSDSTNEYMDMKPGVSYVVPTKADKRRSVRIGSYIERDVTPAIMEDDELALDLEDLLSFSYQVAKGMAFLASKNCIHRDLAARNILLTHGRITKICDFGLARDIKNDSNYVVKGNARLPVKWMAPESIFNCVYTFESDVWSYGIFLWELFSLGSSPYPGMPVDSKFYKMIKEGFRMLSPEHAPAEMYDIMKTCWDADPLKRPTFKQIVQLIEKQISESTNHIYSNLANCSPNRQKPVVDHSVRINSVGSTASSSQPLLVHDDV
Test: uKit kinase enzymatic assay (pyruvate kinase/lactate dehydrogenase coupled)
Details: ATP 2000 μM, rate 3 to 4 h

- smi: "CC(=O)Nc1cc(Oc2ccc(-n3nc(C(C)(C)C)[nH]c3=O)nc2C)ccn1"
  IC50: "> 1000 nM"
- smi: "Cc1nc(-n2nc(C(C)(C)C)n(C)c2=O)ccc1Oc1ccnc(-c2cnn(C)c2)c1"
  IC50: "100 to 1000 nM"
- smi: "CCC(C)(C)c1nn(-c2ccc(Oc3ccnc(-c4cnn(C)c4)c3)c(C)n2)c(=O)[nH]1"
  IC50: "10 to 100 nM"
- smi: "COC(C)(C)c1nn(-c2ccc(Oc3ccnc(-c4cnn(C)c4)c3)c(C)n2)c(=O)[nH]1"
  IC50: "> 1000 nM"
